Biological target: T1, Human PTGFRN-ECD (extracellular domain; amino-acid 26 to amino-acid Y at 832), His-tag protein (human, UniProt Q9P2B2 26-832)
T1 construct: range 26-832; Expressed in Hek-293 cells, purified on a nickel column; also called recombinant PTGFRN; not shown: His-tag
T1 sequence (looked up): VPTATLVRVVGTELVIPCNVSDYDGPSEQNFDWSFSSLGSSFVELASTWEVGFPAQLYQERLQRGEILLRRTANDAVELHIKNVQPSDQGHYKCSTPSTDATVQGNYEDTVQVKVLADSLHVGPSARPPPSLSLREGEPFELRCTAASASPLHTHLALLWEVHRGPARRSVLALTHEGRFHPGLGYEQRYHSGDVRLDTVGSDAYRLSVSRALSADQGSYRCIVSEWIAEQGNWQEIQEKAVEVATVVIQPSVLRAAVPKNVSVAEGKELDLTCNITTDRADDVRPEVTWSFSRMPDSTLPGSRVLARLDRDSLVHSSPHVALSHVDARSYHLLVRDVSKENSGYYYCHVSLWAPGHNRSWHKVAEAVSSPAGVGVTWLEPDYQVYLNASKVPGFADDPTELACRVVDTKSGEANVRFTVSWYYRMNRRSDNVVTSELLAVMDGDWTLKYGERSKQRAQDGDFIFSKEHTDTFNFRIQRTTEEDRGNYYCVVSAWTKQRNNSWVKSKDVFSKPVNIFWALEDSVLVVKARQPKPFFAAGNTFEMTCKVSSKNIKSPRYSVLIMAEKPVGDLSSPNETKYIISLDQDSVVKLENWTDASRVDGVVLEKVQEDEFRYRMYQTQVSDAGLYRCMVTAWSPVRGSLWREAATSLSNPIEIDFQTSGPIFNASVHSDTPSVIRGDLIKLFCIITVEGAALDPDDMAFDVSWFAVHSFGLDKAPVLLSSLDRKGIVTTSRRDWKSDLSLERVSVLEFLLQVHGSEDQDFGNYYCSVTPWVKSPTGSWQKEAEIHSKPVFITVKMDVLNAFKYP
Experiment: Octet Red96 pairing (binning matrix) on PTGFRN-ECD; capture Ab (1st loading Ab): 9G8
result-type: Octet pairing response
Respond using a number only.

Here are 2 binders together with their reported answers.
10D9 (antibody, V domains shown, Mouse hybridoma mAb) VH: DVQLQESGPGLVKPSQSLSLTCSVTGCSITSGYDWNWIRQFPGNKLEWMGYINYDGNSNYIPSLKNRVSITRDTSKNQFFLKLNSVTTEDTATYYCARSDGYYWYFDVWGTGTTVTVSS VL: DIKMTQSPSSMYASLGERVTITCKASQDIKSYLSWYQQKPWKSPKTLIYYATSLADGVPSRFSASGSGQDYSLTISSLESDDTATYYCLQHAERPLTFGAGTKLELK | 0.142
6F6 (antibody, V domains shown, Mouse hybridoma mAb) VH: QVQLQQSGAELVKPGASVKVSCKASGYTFTTYWMHWVKQRPGQGLEWIGRIHPSDSDTNYNQKFKGKATLTLDKSSSTAYMQLSSLTSEDSAVYYCAMSLYYTMDYWGQGTSVTVSS VL: DIQMTQSPSSLSASLGGKVTITCKASQDIKKYIAWYQHKPGKGPRLLIHYTSTLQPGIPSRFSGSGSGRDYSFSISNLEPEDIATYYCLQYDNLLYTFGGGTKLEIK | 0.146

Exercise: What Octet pairing response value was documented for this binder, 3E10 (antibody, V domains shown) VH: EVHLVESGGDLVKPGGSLKLSCAASGFTFSSYGMSWVRQTPDKRLEWVASISSGGSHTYYPDRVKGRFTISRDNAKNTLYLQMSSLKSEDTAMYYCARHPSYYGSSLYCFDYWGQGTTLTVSS VL: DIQMTQTTSSLSASLGDRVTISCRASQDISNYLNWYQQKPDGTVKLLIYYTSRLHSGVPSRFSGSGSGTDFSLTISNLEQEDVATYFCQQGSTLPWTFGGGTKLEIK ?
Solution: 0.124

Exercise: How about this binder: 2B12 (antibody, V domains shown, Mouse hybridoma mAb) VH: QVQLQQPGAELVKPGASVKMSCKASGYTFTSYWITWVKQGPGQGLEWIGDIYPGSGNTNYNEKFKSKATLTVDTSSSTAYMQLSSLTSEDSAVYYCARFFILTSYYFDYWGQGTTLTVSS VL: GIVMTQSQKFMSTTVGDRVSITCKASQNVGTAVAWFQQKPGQSPKLLIYLASNRYTGVPDRFTGSGSGTDFTLTISNMQSEDLADYFCQQYSNYPLTFGAGTKLELK
Solution: 0.0926

Exercise: Next record, please: 1E2 (antibody, V domains shown, Mouse hybridoma mAb) VH: DVQLQESGPGLVKPSQSLSLTCSVTDYSITSGYYWNWIRQFPGNKLEWMGYISYDGSNNYNPSLKNRLSITRDTSKNQFFLKLNSVTPEDTATYYCARGWDYCFDYWGQGATLTVSS VL: DIQMTQTTSSLSASLGDRVTISCSASQGISNYLNWYQQKPDGTVKLLIYYTSGLHSGVPSRFSGSGSGTDYSLTISNLEPEDIATYYCQQYSQLPWTFGGGTKLEIK
Solution: 0.215
